# Tested on: TK-10 renal
# assay-method-text: NCI tumour cell line growth inhibition, 48 h
recorded-metric: TGI (µM)
The figure you give is taken to be in µM; do not add the unit.

{"columns": ["item-smiles", "TGI (µM)"],
 "data": [
  ["O=[N+]([O-])C(=C(Nc1ccccc1)Nc1ccccc1)/C(Cl)=C(\\Cl)[N+](=O)[O-]", 16.9]
]}

q: TGI lookup needed for CCOC(=O)N1CCN(/[N+]([O-])=N/Oc2ccc([N+](=O)[O-])cc2[N+](=O)[O-])CC1 , thanks.
a: 5.57

q: TGI lookup needed for CCN(CC)c1c(C(=O)/C=C/c2ccc(Cl)cc2)c(-c2ccccc2)nn(C)c1=O , thanks.
a: 4

----------
# Test system: CCRF-CEM leukemia
# assay-method-text: NCI tumour cell line growth inhibition, 48 h
recorded-metric: TGI

Known results for compounds:
{"columns": ["compound", "target-entity", "value-observed"],
 "data": [
  ["O=[N+]([O-])c1ccc(C[P+](c2ccccc2)(c2ccccc2)c2ccccc2)cc1", "CCRF-CEM leukemia", "> 100 µM"],
  ["OC(Cc1ccncc1)C(Cl)(Cl)Cl (centres undefined)", "CCRF-CEM leukemia", "> 100 µM"],
  ["Brc1ccc(C2CC(c3cccc4ccccc34)=Nc3ccccc3S2)cc1 (centres undefined)", "CCRF-CEM leukemia", "81.6 µM"],
  ["Cc1ccc2nc(Cl)c(/C=N/N3C(=O)/C(=C/c4cccc([N+](=O)[O-])c4)N=C3c3ccccc3)cc2c1", "CCRF-CEM leukemia", "97 µM"]
]}

q: TGI lookup needed for Fc1ccc(C2CC(c3cccc(Nc4ccncc4)c3)=NN2c2ccc(Cl)cc2)cc1 (centres undefined) , thanks.
a: 9.87 µM

q: TGI lookup needed for O=C(CCCCCCNC(=O)c1cnc(N(c2ccccc2)c2ccccc2)nc1)NO , thanks.
a: > 100 µM

q: TGI lookup needed for O=C(O)c1n[nH][nH]c1=S , thanks.
a: > 100 µM

q: TGI lookup needed for CC[C@H](CCCC[C@H]1CC[C@@H]2CC(=O)C[C@H]12)OC , thanks.
a: > 100 µM

q: TGI lookup needed for O=C1N=C(SC(SC2=NC(=O)C3(NN2)c2ccccc2-c2ccccc23)=C(SC2=NC(=O)C3(NN2)c2ccccc2-c2ccccc23)SC2=NC(=O)C3(NN2)c2ccccc2-c2ccccc23)NNC12c1ccccc1-c1ccccc12 , thanks.
a: > 10 µM

q: TGI lookup needed for CC(=O)NC1C(OC[C@@H](CC(=O)N[C@@H](CC(=O)O)CC(=O)N[C@H](CC(=O)N[C@@H](CCCN)CC(=O)N[C@@H](CCCN)CC(=O)N[C@H](CC(N)=O)C(C)C)C(C)C)NC(=O)C[C@@H](N)C(C)C)OC(CO)C(O)C1O (some centres undefined) , thanks.
a: > 100 µM

q: TGI lookup needed for CSC(=Nc1nnc(-c2ccc([N+](=O)[O-])cc2)s1)SC , thanks.
a: > 100 µM

q: TGI lookup needed for c1cncc(C2(c3cc4ccccc4[nH]3)COCO2)c1 (centres undefined) , thanks.
a: 56.6 µM

q: TGI lookup needed for COc1ncnc2c(-c3ccccc3)cn(COCc3ccccc3)c12 , thanks.
a: > 100 µM

q: TGI lookup needed for CN(/N=C/c1cccc2cccnc12)c1ccc([N+](=O)[O-])cc1[N+](=O)[O-] , thanks.
a: > 100 µM

q: TGI lookup needed for CCOC(=O)c1nnsc1NC(=O)Nc1ccc(Cc2ccc(NC(=O)Nc3snnc3C(=O)OCC)cc2)cc1 , thanks.
a: > 100 µM

q: TGI lookup needed for CC1OC(OC2C(O)COC(OC3C(C)OC(OC4C(OC(=O)[C@]56CCC(C)(C)C[C@@H]5C5=CCC7[C@@]8(C)C[C@H](O)[C@H](OC9OC(CO)C(O)C(OC%10OC(CO)C(O)C(O)C%10O)C9O)[C@@](C)(CO)[C@@H]8CC[C@@]7(C)[C@]5(C)CC6)OCC(O)C4O)C(O)C3OC3OCC(O)(CO)C3O)C2O)C(O)C(O)C1O (some centres undefined) , thanks.
a: 15.4 µM

q: TGI lookup needed for CCOC(=O)N1CCN(/[N+]([O-])=N/Oc2ccc([N+](=O)[O-])cc2[N+](=O)[O-])CC1 , thanks.
a: 12.2 µM

q: TGI lookup needed for COc1ccc(-c2cc3c(c4cc(OC)ccc24)C(=O)OC3=O)cc1 , thanks.
a: > 100 µM

q: TGI lookup needed for O=C1NCC(CSc2nc3cc(C4CCCc5c4[nH]c4ccccc54)ccc3o2)N1 (centres undefined) , thanks.
a: > 100 µM

q: TGI lookup needed for CCN1C(=O)N(CC)C2C1NN=c1s/c(=C\c3cccc(F)c3)c(=O)n12 (centres undefined) , thanks.
a: > 100 µM
